# Tested on: Rattus norvegicus
# procedure_details: Effect on brain tissue level after 1h at 10 mg/kg, iv
# Assay type: ADME, organism-based, Wistar
# Set-up: dose 10 mg/kg, route intravenous
# protocol_conditions: in vivo
property_measured: brain level (µmol/kg)
Dear colleague, please return just the value in µmol/kg, with no unit written.

For record CC(C)c1c(Cl)sc2nc(O)c(-c3cccc(Oc4ccccc4)c3)c(O)c12 the listed brain level is 0.28

* * *

Each entry below lists one item and its recorded pKi value.
# assay_system: Glutamate NMDA receptor
# procedure_details: Inhibition of [3H]glycine binding to NMDA receptor in rat brain membranes
Reminder that pKi means the negative base-10 logarithm of the concentration expressed in mol/L.

Example results:
{"columns": ["molecule", "pKi"],
 "data": [
  ["Oc1nc2sccc2c(O)c1-c1ccccc1", 4.79],
  ["OCc1c(Cl)sc2nc(O)c(-c3cccc(Oc4ccccc4)c3)c(O)c12", 7.16]
]}

For record Cc1csc2nc(O)c(-c3cccs3)c(O)c12 the listed pKi is 4.47

For record CCC(C)c1c(Cl)sc2nc(O)c(-c3cccc(Oc4ccccc4)c3)c(O)c12 (configuration not stated) the listed pKi is 8.70

For record Cc1csc2nc(O)c(-c3ccccc3)c(O)c12 the listed pKi is 5.08

For record CC1=C(CN)SC2NC(=O)C(c3cccc(Oc4ccccc4)c3)=C(O)C12 (configuration not stated) the listed pKi is 5.70

For record CCc1c(Cl)sc2nc(O)c(-c3ccccc3)c(O)c12 the listed pKi is 8.05

For record Oc1nc2sc3c(c2c(O)c1-c1ccccc1)CCCC3 the listed pKi is 5.37

For record CCc1c(Cl)sc2nc(O)c(-c3cccc(Oc4ccccc4)c3)c(O)c12 the listed pKi is 8.95

For record Oc1nc2sc3c(c2c(O)c1-c1cccc(Oc2ccccc2)c1)CCC3 the listed pKi is 6.93

For record CCCc1c(Cl)sc2nc(O)c(-c3cccc(Oc4ccccc4)c3)c(O)c12 the listed pKi is 8.39

For record CC(C)c1c(Cl)sc2nc(S)c(-c3ccccc3)c(O)c12 the listed pKi is 6.05

For record Cc1c(Cl)sc2nc(O)c(-c3ccccc3)c(O)c12 the listed pKi is 6.57

For record O=c1[nH]c2cc(Cl)ccc2c(O)c1-c1cccc(Oc2ccccc2)c1 the listed pKi is 8.85

* * *

# Test system: Rattus norvegicus
# procedure_details: Effect on brain tissue level after 6 min at 10mg/kg, iv
# Format: ADME, organism-based, Wistar
# protocol_conditions: in vivo, 0.1 h
property_measured: brain level (µmol/kg)
Dear colleague, please return just the value in µmol/kg, with no unit written.

Hey, Rattus norvegicus data for CC(C)c1c(Cl)sc2nc(O)c(-c3cccc(Oc4ccccc4)c3)c(O)c12 : brain level came out at 3.5

* * *

# assay_system: Glutamate NMDA receptor
# procedure_details: Inhibition of [3H]glycine binding to NMDA receptor in rat brain membranes
Each entry below lists one item and its recorded pKi value.
Reminder that pKi means the negative base-10 logarithm of the concentration expressed in mol/L.

Example results:
{"columns": ["compound", "property_measured", "result_value"],
 "data": [
  ["CC(C)c1c(Cl)sc2nc(O)c(-c3ccccc3)c(O)c12", "pKi", 8.18],
  ["Oc1nc2scc(C3CC3)c2c(O)c1-c1ccccc1", "pKi", 5.32],
  ["CC(C)(C)c1c(Cl)sc2nc(O)c(-c3cccc(Oc4ccccc4)c3)c(O)c12", "pKi", 8.48],
  ["CCc1cc2c(O)c(-c3ccccc3)c(O)nc2s1", "pKi", 5.51],
  ["Oc1nc2sc(Cl)c(C3CC3)c2c(O)c1-c1ccccc1", "pKi", 7.24],
  ["CC(C)c1csc2nc(O)c(-c3ccccc3)c(O)c12", "pKi", 5.82],
  ["CCc1c(Br)sc2nc(O)c(-c3ccccc3)c(O)c12", "pKi", 7.98],
  ["NCCc1c(Cl)sc2nc(O)c(-c3ccccc3)c(O)c12", "pKi", 5.34],
  ["COCc1c(Cl)sc2nc(O)c(-c3cccc(Oc4ccccc4)c3)c(O)c12", "pKi", 8.80],
  ["CCCCCCc1c(Cl)sc2nc(O)c(-c3cccc(Oc4ccccc4)c3)c(O)c12", "pKi", 7.10]
]}

For record Cc1c(Br)sc2nc(O)c(-c3ccccc3)c(O)c12 the listed pKi is 6.41

* * *

# Test system: Rattus norvegicus
# procedure_details: Effect on brain tissue level after 1h at 5 mg/kg, iv
# Assay type: ADME, organism-based, Wistar
# Design: dose 5 mg/kg, route intravenous
# protocol_conditions: in vivo
property_measured: brain level (µmol/kg)
Dear colleague, please return just the value in µmol/kg, with no unit written.

For record O=c1[nH]c2cc(Cl)ccc2c(O)c1-c1cccc(Oc2ccccc2)c1 the listed brain level is 1.4

* * *

# assay_system: Glutamate NMDA receptor
# procedure_details: Inhibition of [3H]glycine binding to NMDA receptor in rat brain membranes
Met if Ki is below 300 nM. Not met if not; exact matches included in Not met.

A selection of reference data follows.
{"columns": ["molecule", "cat"],
 "data": [
  ["Cc1c(Cl)sc2nc(O)c(-c3cccc(Oc4ccccc4)c3)c(O)c12", "Met"],
  ["CCC(C)c1csc2nc(O)c(-c3cccc(Oc4ccccc4)c3)c(O)c12 (stereo not drawn)", "Met"],
  ["COCc1csc2nc(O)c(-c3cccc(Oc4ccccc4)c3)c(O)c12", "Met"],
  ["Oc1nc2sc(Br)cc2c(O)c1-c1ccccc1", "Not met"],
  ["Cc1csc2nc(O)c(-c3cccc(Oc4ccccc4)c3)c(O)c12", "Not met"]
]}

IN: Take the molecule Oc1nc2sc(Cl)c(C3CCCCC3)c2c(O)c1-c1cccc(Oc2ccccc2)c1 and say whether its Ki is less than 300 nM.
OUT: Not met

IN: Take the molecule Oc1nc2sc3c(c2c(O)c1-c1cccc(Oc2ccccc2)c1)CCCC3 and say whether its Ki is less than 300 nM.
OUT: Not met

IN: Take the molecule CCc1csc2nc(O)c(-c3cccc(Oc4ccccc4)c3)c(O)c12 and say whether its Ki is less than 300 nM.
OUT: Met

IN: Take the molecule O=c1[nH]c2cc(Cl)ccc2c(O)c1-c1ccccc1 and say whether its Ki is less than 300 nM.
OUT: Met

* * *

# assay_system: Glutamate NMDA receptor
# procedure_details: Inhibition of [3H]glycine binding to NMDA receptor in rat brain membranes
property_measured: Ki

{"columns": ["compound", "property_measured", "result_value"],
 "data": [
  ["CC(C)c1c(Cl)sc2nc(S)c(-c3cccc(Oc4ccccc4)c3)c(O)c12", "Ki", "139 nM"],
  ["Oc1nc2sccc2c(O)c1-c1cccc(Oc2ccccc2)c1", "Ki", "368 nM"],
  ["Oc1nc2ccsc2c(O)c1-c1ccccc1", "Ki", "97500 nM"],
  ["CCc1csc2nc(O)c(-c3ccccc3)c(O)c12", "Ki", "530 nM"],
  ["Cc1cc2c(O)c(-c3cccs3)c(O)nc2s1", "Ki", "22700 nM"]
]}

For record Oc1nc2sc3c(c2c(O)c1-c1cccc(Oc2ccccc2)c1)CCCS3 the listed Ki is 37 nM

For record Oc1nc2cscc2c(O)c1-c1ccccc1 the listed Ki is 26000 nM

For record Oc1nc2sc(Cl)c(C3CC3)c2c(O)c1-c1cccc(Oc2ccccc2)c1 the listed Ki is 9.5 nM

* * *

# assay_system: Glutamate NMDA receptor
# procedure_details: Inhibition of [3H]glycine binding to NMDA receptor in rat brain membranes
property_measured: pKi
Reminder that pKi means the negative base-10 logarithm of the concentration expressed in mol/L.

{"columns": ["molecule", "property_measured", "result_value"],
 "data": [
  ["O=c1[nH]c2ccccc2c(O)c1-c1ccccc1", "pKi", 4.91],
  ["Oc1nc2sc(Cl)cc2c(O)c1-c1cccc(Oc2ccccc2)c1", "pKi", 7.78],
  ["CC(C)c1c(Cl)sc2nc(O)c(-c3cccc(Oc4ccccc4)c3)c(O)c12", "pKi", 8.84]
]}

For record CCC(C)c1csc2nc(O)c(-c3ccccc3)c(O)c12 (centres undefined) the listed pKi is 6.03

* * *

# assay_system: Glutamate NMDA receptor
# procedure_details: Inhibition of [3H]glycine binding to NMDA receptor in rat brain membranes
property_measured: pKi
Reminder that pKi means the negative base-10 logarithm of the concentration expressed in mol/L.

Example results:
{"columns": ["compound", "pKi"],
 "data": [
  ["Cc1sc2nc(O)c(-c3ccccc3)c(O)c2c1C", 5.90],
  ["NCCc1c(Cl)sc2[nH]c(=O)c(-c3cccc(Oc4ccccc4)c3)c(O)c12", 4.78],
  ["Cc1cc2c(O)c(-c3ccccc3)c(O)nc2s1", 5.02],
  ["CCC(C)c1c(Cl)sc2nc(O)c(-c3ccccc3)c(O)c12 (stereo not given)", 8.24]
]}

Proceeding to the next compound to report its pKi.
For record Oc1nc2sc3c(c2c(O)c1-c1cccs1)CCCC3 the listed pKi is 4.64
